Source of measurements: patent US9669003B2

system: Kunming mice; assay: Influence on autonomic activity of normal mice (ZIL-2 mice autonomic activity meter, counts within 10 min); type: in vivo; conditions: intragastric, 50 mg/kg, 1 h after administration, x ± s, n = 10
compounds and their reported Times of activities in 1 h after drug administration/10 min
testReadout: Times of activities in 1 h after drug administration/10 min

* C=Cc1cc(-c2cc(=O)c3c(C4CCSC4)cc(C(N)=O)cc3o2)cc(N)c1CC (centres unmarked) [Example 17] | 176.6 ± 50.2 /10 min
* COc1ccc(-c2cc(=O)c3c(O)cc(OC)c(OC)c3o2)cc1O [Example 2] | 295.3 ± 41.8 /10 min
* COc1ccc(-c2oc3c(OC)c(OC)c(OC)c(OC)c3c(=O)c2OC)cc1OC [Example 41, 3,5,6,7,8,3′,4′-heptamethoxyl-flavone] | 260.4 ± 37.9 /10 min
* COc1ccc(-c2cc(=O)c3c(OC)c(OC)c(OC)c(OC)c3o2)cc1OC [Example 14, 5,6,7,8,3′,4′-hexamethoxyl-flavone] | 178.6 ± 40.2 /10 min
* COc1c(O)cc(C2CC(=O)c3c(O)cc(O)cc3O2)cc1C(=O)O (centres unmarked) [Example 50] | 297.5 ± 42.5 /10 min
* COc1cc(OC)c2c(=O)cc(-c3ccccc3O)oc2c1OC [Example 3, 2′-hydroxyl-5,7,8-trimethoxyl-flavone] | 236.2 ± 41.5 /10 min
* CCCc1ccc(C2CC(=O)c3c(O)cc([N+](=O)[O-])cc3O2)cc1OC (centres unmarked) [Example 61] | 295.1 ± 41.9 /10 min
* COc1ccc(C2CC(=O)c3cc(CCS(=O)(=O)O)c(C4CCNC4)c(N)c3O2)cc1SC#N (centres unmarked) [Example 55] | 138.3 ± 67.6 /10 min

----------
system: Kunming mice; assay: Influence on autonomic activity of normal mice (ZIL-2 mice autonomic activity meter, counts within 10 min); format: in vivo; settings: intragastric, 25 mg/kg, 2 h after administration, x ± s, n = 10
compounds and their reported Times of activities in 2 h after drug administration/10 min
testReadout: Times of activities in 2 h after drug administration/10 min

• Cc1cc(C2CC(=O)c3c(cccc3[N+](=O)[O-])O2)ccc1Oc1ccccc1 (centres unmarked) = 239.3 ± 34.6 /10 min
• COc1ccc(C2CC(=O)c3c(OC)c(OC)c(OC)c(OC)c3O2)cc1 (centres unmarked) = 312.7 ± 56.1 /10 min
• COc1cc(OC)c2c(c1)OC(c1cc(OC)c(OC)c(OC)c1)CC2=O (centres unmarked) = 299.2 ± 38.9 /10 min
• COc1c(O)cc(C2CC(=O)c3c(O)cc(O)cc3O2)cc1C(=O)O (centres unmarked) = 290.6 ± 41.2 /10 min
• N#Cc1cc(-c2cc(=O)c3c(N)cc(F)cc3o2)ccc1O = 288.0 ± 38.9 /10 min
• COc1ccc(C2CC(=O)c3c(O)cccc3O2)cc1O (centres unmarked) = 264.9 ± 44.7 /10 min
• CC=Cc1c(C(=O)O)cc2c(=O)cc(-c3ccc(F)c(C#N)c3)oc2c1C(=O)O = 276.2 ± 43.8 /10 min
• COc1cc2c(c(OC)c1OC)OC(c1cc(OC)c(OC)c(OC)c1OC)CC2=O (centres unmarked) = 312.5 ± 54.8 /10 min

----------
tested on: Kunming mice; assay: Influence on autonomic activity of normal mice (ZIL-2 mice autonomic activity meter, counts within 10 min); format: in vivo; conditions: intragastric, 50 mg/kg, 1 h after administration, x ± s, n = 10, 50 mg/kg
testReadout: Times of activities in 1 h after drug administration/10 min

- COc1cc(OC)c2c(=O)cc(-c3ccc(OC)c(OC)c3)oc2c1 [Example 7, 5,7,3′,4′-tetramethoxyl-flavone]: 184.7 ± 52.6 /10 min
- COc1ccc(C2CC(=O)c3c(O)c(OC)c(OC)c(OC)c3O2)cc1OC (stereo not shown) [Example 43]: 254.1 ± 42.7 /10 min
- COc1ccc(C2CC(=O)c3c(O)c(OC)c(OC)c(OC)c3O2)cc1OC (stereo not shown) [Example 64]: 283.8 ± 60.4 /10 min
- COc1cc(OC)c2c(=O)cc(-c3ccc(OC)c(OC)c3)oc2c1 [Example 36]: 289.9 ± 44.8 /10 min

----------
compounds and their reported time to sleep
tested on: Kunming mice; test: Influence on hypnosis effect with pentobarbital sodium doses at the threshold (50 mg/kg i.p.); format: in vivo; conditions: 100 mg/kg intragastric single dose, pentobarbital sodium 50 mg/kg i.p. 60 min later, x ± s, n = 10
testReadout: time to sleep (min)

- COc1c(O)cc(C2CC(=O)c3c(O)cc(O)cc3O2)cc1C(=O)O (stereo not drawn): 3.25
- COc1cc(C2Oc3c(OC)c(OC)c(OC)c(O)c3C(=O)C2OC)c(OC)c(OC)c1OC (stereo not drawn): 3.31
- COc1ccc(C2CC(=O)c3c(O)c(OC)c(OC)c(OC)c3O2)cc1 (stereo not drawn): 2.26
- COc1cc(-c2cc(=O)c3c(OC)c(OC)c(OC)cc3o2)cc(OC)c1OC: 3.83
- O=C1CC(c2ccc(O)c(O)c2)Oc2cc(O)cc(O)c21 (stereo not drawn): 3.82
- C=Cc1cc2c(=O)cc(-c3ccc(CC)c(N)c3)oc2c(C2CCSC2)c1C(N)=O (stereo not drawn): 3.25
- COc1ccc(-c2oc3c(OC)c(OC)c(OC)c(OC)c3c(=O)c2OC)cc1OC: 3.16
- COc1cc(OC)c2c(c1)OC(c1cc(OC)c(OC)c(OC)c1OC)CC2=O (stereo not drawn): 3.14
- COc1ccc(C2CC(=O)c3c(OC)c(OC)c(OC)c(OC)c3O2)cc1 (stereo not drawn): 3.18
- C=Cc1cc(C2CC(=O)c3cc(C(N)=O)c(C4CCSC4)c(Oc4ccccc4)c3O2)ccc1N (stereo not drawn): 3.43
- COc1cc(-c2cc(=O)c3c(OC)c(OC)c(OC)c(OC)c3o2)cc(OC)c1OC: 3.29
- CCCc1ccc(C2CC(=O)c3c(O)cc([N+](=O)[O-])cc3O2)cc1OC (stereo not drawn): 3.79
- COc1ccc(C2CC(=O)c3c(O)c(OC)c(OC)c(OC)c3O2)cc1OC (stereo not drawn) [Example 43]: 3.85
- COc1ccc(-c2cc(=O)c3c(OC)cc(O)cc3o2)cc1OC [Example 5, 7-hydroxyl-5,3′,4′-trimethoxyl-flavone]: 2.23
- COc1cc(OC)c2c(c1)OC(c1cc(OC)c(OC)c(OC)c1)CC2=O (stereo not drawn): 3.96
- CCCc1cc(O)cc2c1C(=O)CC(c1ccc(-c3ccccc3)c([N+](=O)[O-])c1)O2 (stereo not drawn): 2.28
- Cc1cc(C2CC(=O)c3c(cccc3[N+](=O)[O-])O2)ccc1Oc1ccccc1 (stereo not drawn): 2.33
- COc1ccc(-c2cc(=O)c3cc(OC)c(OC)c(OC)c3o2)cc1OC: 3.73

----------
molecules and their reported duration of sleep
tested on: Kunming mice; assay: Influence on hypnosis effect with pentobarbital sodium doses at the threshold (50 mg/kg i.p.); format: in vivo; details: 50 mg/kg intragastric single dose, pentobarbital sodium 50 mg/kg i.p. 60 min later, x ± s, n = 10
testReadout: duration of sleep (min)

* CCCc1cc(-c2cc(=O)c3c(I)cc(CCS(=O)(=O)O)cc3o2)cc(C(N)=O)c1C(=O)O | 28.59
* COc1cc(C2Oc3c(OC)c(OC)c(OC)c(O)c3C(=O)C2OC)c(OC)c(OC)c1OC (centres unmarked) | 29.78
* CC=Cc1cc(I)cc2c1OC(c1cccc(C(=O)O)c1)CC2=O (centres unmarked) | 58.37
* COc1ccc(-c2cc(=O)c3c(OC)c(OC)c(OC)c(OC)c3o2)cc1 | 29.13
* N#CSc1ccc(-c2cc(=O)c3cc(N)c(F)c(C#N)c3o2)cc1O | 46.89
* CC=Cc1cc(Cc2ccccc2)c2c(=O)cc(-c3cc(C#N)c([N+](=O)[O-])c(Cc4ccccc4)c3)oc2c1 | 62.87
* C=Cc1cc(C(N)=O)cc2oc(-c3ccc(N)c(C4CCSC4)c3)cc(=O)c12 (centres unmarked) | 36.68
* COc1ccc(-c2cc(=O)c3c(OC)cc(O)cc3o2)cc1OC [Example 5, 7-hydroxyl-5,3′,4′-trimethoxyl-flavone] | 74.82
* COc1ccc(-c2cc(=O)c3c(O)cc(OC)c(OC)c3o2)c(OC)c1OC | 72.31
* CC=Cc1cc(C(=O)O)c2c(=O)cc(-c3ccc(C#N)c(C(=O)O)c3)oc2c1 | 27.68
* COc1ccc(-c2cc(=O)c3c(OC)c(OC)c(OC)c(OC)c3o2)cc1OC | 57.34

----------
tested on: Kunming mice; assay: Influence on hypnosis effect with pentobarbital sodium doses at the threshold (50 mg/kg i.p.); format: in vivo; conditions: 100 mg/kg intragastric single dose, pentobarbital sodium 50 mg/kg i.p. 60 min later, x ± s, n = 10
compounds and their reported duration of sleep
testReadout: duration of sleep

* CCCc1cc2c(=O)cc(-c3ccc(C(=O)O)c(C(N)=O)c3)oc2c(I)c1CCS(=O)(=O)O [Example 35] | 58.38 ± 26.82 min
* COc1cc(-c2cc(=O)c3c(OC)c(OC)c(OC)c(OC)c3o2)cc(OC)c1OC [Example 15, 5,6,7,8,3′,4′,5′-heptamethoxyl-flavone] | 58.25 ± 21.48 min
* C=Cc1cc2c(=O)cc(-c3ccc(CC)c(N)c3)oc2c(C2CCSC2)c1C(N)=O (centres unmarked) [Example 30] | 58.74 ± 19.57 min
* CCCc1ccc(C2CC(=O)c3c(O)cc([N+](=O)[O-])cc3O2)cc1OC (centres unmarked) [Example 61] | 58.47 ± 24.40 min
* COc1ccc(C2CC(=O)c3c(OC)c(OC)c(OC)c(OC)c3O2)cc1 (centres unmarked) [Example 47, 5,6,7,8,4′-penta methoxyl-flavanone] | 59.78 ± 19.65 min
